Just for reference, the supplement of paper PMC10307832 is where these values come from.

This section presents compounds with their documented relative viability values.
tested on: NCI-H2009; test: relative viability (nuclei count vs DMSO), 5 days (fraction); higher = more cells survive; conditions: first compound 0.03162 µM

# compound, relative viability
measured = [
    ("CC(C)Oc1cc(Nc2nc(N[C@@H](C)c3ccc(F)cn3)ncc2Cl)n[nH]1 [AZ23] + C[C@]1(O)C[C@@H](c2nc(-c3ccc4ccc(-c5ccccc5)nc4c3)c3c(N)nccn32)C1 [Linsitinib] (partner 1 µM)", 1.25),
    ("CC(C)Oc1cc(Nc2nc(N[C@@H](C)c3ccc(F)cn3)ncc2Cl)n[nH]1 [AZ23] + CC(=O)Nc1cccc(-n2c(=O)n(C3CC3)c(=O)c3c(Nc4ccc(I)cc4F)n(C)c(=O)c(C)c32)c1 [Trametinib] (partner 0.02 µM)", 0.243),
]

----------
This section presents compounds with their documented relative viability values.
system: HCC-366; assay: relative viability (nuclei count vs DMSO), 5 days (fraction); higher = more cells survive; conditions: first compound 0.4 µM

# compound, relative viability
data = [
    ("Clc1ccc(Nc2nnc(Cc3ccncc3)c3ccccc23)cc1 [Vatalanib] + COc1cccc2cc(-c3nc([C@H]4CC[C@H](C(=O)O)CC4)n4ncnc(N)c34)[nH]c12 [OSI-027] (partner 0.5 µM)", 1.13),
    ("Clc1ccc(Nc2nnc(Cc3ccncc3)c3ccccc23)cc1 [Vatalanib] + CC1(C)CCC(c2ccc(Cl)cc2)=C(CN2CCN(c3ccc(C(=O)NS(=O)(=O)c4ccc(N[C@H](CCN5CCOCC5)CSc5ccccc5)c(S(=O)(=O)C(F)(F)F)c4)cc3)CC2)C1 [Navitoclax] (partner 0.5 µM)", 1.25),
]

----------
tested on: NCI-H2087; assay: relative viability (nuclei count vs DMSO), 5 days (fraction); higher = more cells survive; details: first compound 0.1265 µM
property: relative viability

# compound, assayed-target, numeric-readout
rows = [
    ("C[C@@H]1CN(CC(=O)Nc2ccc3c(c2)Cc2cccc(-c4cc(=O)cc(N5CCOCC5)o4)c2S3)C[C@H](C)O1 + COc1cccc2cc(-c3nc([C@H]4CC[C@H](C(=O)O)CC4)n4ncnc(N)c34)[nH]c12 [OSI-027] (partner 0.5 µM)", "NCI-H2087", 0.521),
    ("C[C@@H]1CN(CC(=O)Nc2ccc3c(c2)Cc2cccc(-c4cc(=O)cc(N5CCOCC5)o4)c2S3)C[C@H](C)O1 + CS(=O)(=O)CCNCc1ccc(-c2ccc3ncnc(Nc4ccc(OCc5cccc(F)c5)c(Cl)c4)c3c2)o1 [Lapatinib] (partner 2 µM)", "NCI-H2087", 1.01),
    ("Clc1ccc(Nc2nnc(Cc3ccncc3)c3ccccc23)cc1 [Vatalanib] + O=C(CCCCCCC(=O)Nc1ccccc1)NO [Vorinostat] (partner 1 µM)", "NCI-H2087", 0.6),
    ("C[C@@H]1CN(CC(=O)Nc2ccc3c(c2)Cc2cccc(-c4cc(=O)cc(N5CCOCC5)o4)c2S3)C[C@H](C)O1 + CS(=O)(=O)N1CCN(Cc2cc3nc(-c4cccc5[nH]ncc45)nc(N4CCOCC4)c3s2)CC1 [Pictilisib] (partner 1 µM)", "NCI-H2087", 0.806),
]

----------
system: HCC-827; test: relative viability (nuclei count vs DMSO), 5 days (fraction); higher = more cells survive; conditions: first compound 0.03162 µM
property: relative viability

# compound, numeric-readout
rows = [
    ("CC(C)Oc1cc(Nc2nc(N[C@@H](C)c3ccc(F)cn3)ncc2Cl)n[nH]1 [AZ23] + O=C(c1cc(Cc2n[nH]c(=O)c3ccccc23)ccc1F)N1CCN(C(=O)C2CC2)CC1 [Olaparib] (partner 8 µM)", 0.764),
    ("CC(C)Oc1cc(Nc2nc(N[C@@H](C)c3ccc(F)cn3)ncc2Cl)n[nH]1 [AZ23] + C[C@@H](Oc1cc(-c2cnn(C3CCNCC3)c2)cnc1N)c1c(Cl)ccc(F)c1Cl [Crizotinib] (partner 1 µM)", 1.03),
    ("CC(C)Oc1cc(Nc2nc(N[C@@H](C)c3ccc(F)cn3)ncc2Cl)n[nH]1 [AZ23] + CCNC(=O)c1noc(-c2cc(C(C)C)c(O)cc2O)c1-c1ccc(CN2CCOCC2)cc1 [Luminespib] (partner 0.01 µM)", 0.74),
    ("CC(C)Oc1cc(Nc2nc(N[C@@H](C)c3ccc(F)cn3)ncc2Cl)n[nH]1 [AZ23] + Nc1ncn([C@H]2C[C@H](O)[C@@H](CO)O2)c(=O)n1 [Decitabine] (partner 2 µM)", 0.316),
    ("CC(C)Oc1cc(Nc2nc(N[C@@H](C)c3ccc(F)cn3)ncc2Cl)n[nH]1 [AZ23] + CC(=O)Nc1cccc(-n2c(=O)n(C3CC3)c(=O)c3c(Nc4ccc(I)cc4F)n(C)c(=O)c(C)c32)c1 [Trametinib] (partner 0.02 µM)", 0.563),
    ("CC(C)Oc1cc(Nc2nc(N[C@@H](C)c3ccc(F)cn3)ncc2Cl)n[nH]1 [AZ23] + CS(=O)(=O)CCNCc1ccc(-c2ccc3ncnc(Nc4ccc(OCc5cccc(F)c5)c(Cl)c4)c3c2)o1 [Lapatinib] (partner 2 µM)", 0.172),
    ("CC(C)Oc1cc(Nc2nc(N[C@@H](C)c3ccc(F)cn3)ncc2Cl)n[nH]1 [AZ23] + NC(=O)Nc1cc(-c2cccc(F)c2)sc1C(=O)N[C@H]1CCCNC1 [AZD7762] (partner 0.2 µM)", 0.223),
]

----------
This section presents compounds with their documented relative viability values.
system: NCI-H838; assay: relative viability (nuclei count vs DMSO), 5 days (fraction); higher = more cells survive; settings: first compound 0.1265 µM

# compound, relative viability
records = [
    ("Clc1ccc(Nc2nnc(Cc3ccncc3)c3ccccc23)cc1 [Vatalanib] + CS(=O)(=O)CCNCc1ccc(-c2ccc3ncnc(Nc4ccc(OCc5cccc(F)c5)c(Cl)c4)c3c2)o1 [Lapatinib] (partner 2 µM)", 0.944),
    ("C[C@@H]1CN(CC(=O)Nc2ccc3c(c2)Cc2cccc(-c4cc(=O)cc(N5CCOCC5)o4)c2S3)C[C@H](C)O1 + Cc1cc(Nc2cc(N3CCN(C)CC3)nc(Sc3ccc(NC(=O)C4CC4)cc3)n2)n[nH]1 [Tozasertib] (partner 0.1 µM)", 0.279),
    ("COc1cc(N2CCC(C(N)=O)CC2)ccc1Nc1nc(N)c(Cl)c(Nc2ccccc2S(=O)(=O)C(C)C)n1 [HG-5-88-01] + O=C(CCCCCCC(=O)Nc1ccccc1)NO [Vorinostat] (partner 1 µM)", 0.707),
    ("C[C@@H]1CN(CC(=O)Nc2ccc3c(c2)Cc2cccc(-c4cc(=O)cc(N5CCOCC5)o4)c2S3)C[C@H](C)O1 + CS(=O)(=O)CCNCc1ccc(-c2ccc3ncnc(Nc4ccc(OCc5cccc(F)c5)c(Cl)c4)c3c2)o1 [Lapatinib] (partner 2 µM)", 0.911),
]

----------
This section presents compounds with their documented relative viability values.
system: NCI-H2126; experiment: relative viability (nuclei count vs DMSO), 5 days (fraction); higher = more cells survive; conditions: first compound 0.04 µM

# compound, relative viability
records = [
    ("Clc1ccc(Nc2nnc(Cc3ccncc3)c3ccccc23)cc1 [Vatalanib] + Cc1nc(NC(=O)N2CCC[C@H]2C(N)=O)sc1-c1ccnc(C(C)(C)C(F)(F)F)c1 [Alpelisib] (partner 2 µM)", 0.714),
    ("C[C@@H]1CN(CC(=O)Nc2ccc3c(c2)Cc2cccc(-c4cc(=O)cc(N5CCOCC5)o4)c2S3)C[C@H](C)O1 + Cc1cc(Nc2cc(N3CCN(C)CC3)nc(Sc3ccc(NC(=O)C4CC4)cc3)n2)n[nH]1 [Tozasertib] (partner 0.1 µM)", 0.898),
    ("C[C@@H]1CN(CC(=O)Nc2ccc3c(c2)Cc2cccc(-c4cc(=O)cc(N5CCOCC5)o4)c2S3)C[C@H](C)O1 + Cc1nc(Nc2ncc(C(=O)Nc3c(C)cccc3Cl)s2)cc(N2CCN(CCO)CC2)n1 [Dasatinib] (partner 0.075 µM)", 0.607),
    ("COc1cc(N2CCC(C(N)=O)CC2)ccc1Nc1nc(N)c(Cl)c(Nc2ccccc2S(=O)(=O)C(C)C)n1 [HG-5-88-01] + C[C@]1(O)C[C@@H](c2nc(-c3ccc4ccc(-c5ccccc5)nc4c3)c3c(N)nccn32)C1 [Linsitinib] (partner 1 µM)", 0.641),
    ("COc1cc(N2CCC(C(N)=O)CC2)ccc1Nc1nc(N)c(Cl)c(Nc2ccccc2S(=O)(=O)C(C)C)n1 [HG-5-88-01] + Nc1ncn([C@H]2C[C@H](O)[C@@H](CO)O2)c(=O)n1 [Decitabine] (partner 2 µM)", 0.603),
    ("COc1cc(N2CCC(C(N)=O)CC2)ccc1Nc1nc(N)c(Cl)c(Nc2ccccc2S(=O)(=O)C(C)C)n1 [HG-5-88-01] + Cc1nc(NC(=O)N2CCC[C@H]2C(N)=O)sc1-c1ccnc(C(C)(C)C(F)(F)F)c1 [Alpelisib] (partner 2 µM)", 0.81),
    ("Clc1ccc(Nc2nnc(Cc3ccncc3)c3ccccc23)cc1 [Vatalanib] + COc1cccc2cc(-c3nc([C@H]4CC[C@H](C(=O)O)CC4)n4ncnc(N)c34)[nH]c12 [OSI-027] (partner 0.5 µM)", 0.692),
    ("Clc1ccc(Nc2nnc(Cc3ccncc3)c3ccccc23)cc1 [Vatalanib] + CCNC(=O)c1noc(-c2cc(C(C)C)c(O)cc2O)c1-c1ccc(CN2CCOCC2)cc1 [Luminespib] (partner 0.01 µM)", 0.925),
    ("COc1cc(N2CCC(C(N)=O)CC2)ccc1Nc1nc(N)c(Cl)c(Nc2ccccc2S(=O)(=O)C(C)C)n1 [HG-5-88-01] + Cc1cc(Nc2cc(N3CCN(C)CC3)nc(Sc3ccc(NC(=O)C4CC4)cc3)n2)n[nH]1 [Tozasertib] (partner 0.1 µM)", 0.937),
]
